Details: in acetonitrile, 323.15 K
observed_property: solubility (mole fraction)
Lab note: record just the number, no unit beside it.

Exercise: What measured solubility (mole fraction) goes with `NC(=O)CC[C@H](N)C(=O)O` ?
Solution: 0.000283

* * *

Conditions: in water, 313.15 K
observed_property: solubility (mole fraction)
In your answer, state the number alone without any accompanying words.

Exercise: Would you mind telling me what solubility (mole fraction) value was observed for `NC(=O)CC[C@H](N)C(=O)O` ?
Solution: 0.00811

* * *

Conditions: in sec-butanol, 293.15 K
observed_property: solubility (mole fraction)
# print the numeric value only

Exercise: Please give the measured solubility (mole fraction) for this compound: `NC(=O)CC[C@H](N)C(=O)O`
Solution: 0.00017
